Listing: absorbance 450 nm minus 540 nm of selected binders
assayedTarget: T1, peptide … (SEQ ID NO:51), N-terminally biotinylated (human)
T1 sequence (peptide, N-terminally biotinylated): EISQEVRGDVFPSY
assayMethodText: ELISA, biotin-peptide on neutravidin plate, antibody 1 ug/ml
Numeric answer only, unit absorbance assumed.

A selection of reference data follows.
anti-lactadherin antibody 416H9 (antibody, IgG1, V domains shown, also called hybridoma 416H9; LMBP 9492CB) VH: QVTLKESGPGVLQSSQTLSLTCSFSGFSLSTSGLGVIWIRQPSGAGLEWLAQIYWDDNKRYNPSLKSRLTISKDTSRNQVFLKITPVDTADTATYYCARRTFYDYDEGFYAMDYWGQGTSVTVSS VL: DIQMTQTTSSLSASLGDRVTITCRASQDISNYLNWYQQKPDGTIKLLIYYASRLHSGVPSRFSGSGSGTDYSLTISNLEQEDIATYFCQQGNTLPLTFGAGTKLELKR : 1.76
anti-lactadherin antibody 346B6 (antibody, IgG1, V domains shown, VH identical to that of 311A7; also called hybridoma 346B6; LMBP 9490CB) VH: EFQLQQSGPELVKPGASVRISCKASGYSFTDYNMNWVKQSDGKTLEWIGVINPDYGTTNNNQRFRGKATLTLDLSSSTAYMQLNSLTSEDSAVYYCARGGDYGAGYALDYWGQGTSVTVSS VL: QIVLTQSPAIMSASPGEKVTMTCSASSSVSYMYWYQQKPGSSPRLLIYDTSNLASGVPVRFSGSGSGTSYSLTISRMEAEDAATYYCQQWSSYPPTFGAGTKLELKR : 1

Kindly review the next binder as well.
Notebook: anti-lactadherin antibody 311A7 (antibody, IgG1, V domains shown, also called murine 311A7; hybridoma 311A7) VH: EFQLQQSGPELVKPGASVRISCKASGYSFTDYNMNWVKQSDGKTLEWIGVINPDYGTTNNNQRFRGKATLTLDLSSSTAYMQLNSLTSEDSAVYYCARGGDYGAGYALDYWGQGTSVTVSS VL: QIVLTQSPAIMSASPGEKVTITCSASSSVSYMYWFQQKPGTSPKLWIYSTSNLASGVPARFSGSGSGTSYSLTISRMEAEDAATYYCQQRSSYPRTFGGGTKLEIKR , absorbance 450 nm minus 540 nm read as 1.47
